# measuredOn: RSV F protein of subtype A (strain A2) on recombinant mKate-RSV (Respiratory syncytial virus subtype A …, UniProt P03420 26-574)
# assayInfo: cell-based or functional assay
Examples of binders with documented Neut IC50 (µg/ml) subtype A follow.
quantityKind: Neut IC50 (µg/ml) subtype A

{"binder": "ADI-14530 (antibody, V domains shown, IgG; also called Antibody Number 90) VH: QVQLVQSGAEVKKPGSSVKVSCKVVGGSFSNYGIGWVRQAPGQGPEWMGGIIPAFKTAKYAKKFQDRVTITADESSSTAYMEVRGLRPDDTALYYCARPEGDFGDLKWVRSPFDYWGQGTLVTVSS VL: ETTLTQSPATLSVSPGERVTLSCRASQDVSINLAWYQQKPGQAPRLLIYGASTRATDVPARFSGSGSGTDFTLTISSLQSEDFAFYYCQEYNDWPPQLTFGPGTKVEIK", "result": "> 10 µg/mL"}
{"binder": "ADI-14540 (antibody, V domains shown) VH: QVQLVESGGGVVQPGRSLRLSCAASGFTFTDYAMHWVRQAPGKGLQWVALISYNGRIQYYADSVKGRFTISRDDSKNTLYLQMNSLRAGDTAVYYCARDGDLVAVPAAIGFDSWGQGTLVTVSS VL: DIQVTQSPDSLAVSLGERATINCKSSQSVLYTSNNKNYLAWYQQKSRQPPKLLIYWASTRESGVPERFSGSGSGTDFTLTISSLQAEDVAVYYCQQYSSPPYTFGQGTKVEIK", "result": "> 10 µg/mL"}
{"binder": "ADI-14553 (antibody, V domains shown, IgG) VH: QVQLVQSGTEVKKPGSSVNVSCKAVGGKFTSYNINWVRQAPGQGLEWMGRIIPTLGITYFAQKFQGRLTINADRSTSTAYMDLSSLRSDDTAVYYCARSNPVARDFWSGYSDDSSYAMDVWGQGTTVTVSS VL: ETTLTQSPGTLSLSPGDRVSLSCRASQTVDKNYVAWYQQKPGQAPRLLIYGASKRAADIPDRFSGSGSGADFTLTISRLEPEDFAVYHCQQYGASAFSFGGGTKLEIK", "result": "> 10 µg/mL"}

The measurements presented in this section are drawn from patent US20250313612A1.
